- subject of test: Pim-1 (Homo sapiens (Human))
- Sequence (P11309 whole entry): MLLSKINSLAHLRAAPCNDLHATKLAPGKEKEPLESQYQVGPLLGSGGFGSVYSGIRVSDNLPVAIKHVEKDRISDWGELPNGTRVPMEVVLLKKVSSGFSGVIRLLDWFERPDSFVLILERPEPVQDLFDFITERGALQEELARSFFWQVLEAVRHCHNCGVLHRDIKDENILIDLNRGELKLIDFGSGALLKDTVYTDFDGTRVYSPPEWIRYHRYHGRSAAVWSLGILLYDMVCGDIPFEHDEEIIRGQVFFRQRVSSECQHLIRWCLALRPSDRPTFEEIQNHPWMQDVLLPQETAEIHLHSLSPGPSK
- method: Pim-Mn enzyme assay (HTRF, 384-well), Pim-1
- Assay type: biochemical
- setup conditions: Pim-1 enzyme 5 pM, ATP 1.5 μM, BAD (S112) 0.5 μM, HTRF, 22-point curve; read-out: Pim-1-Mn IC50 IP
Where a name gives a salt, the structure may show the parent alone.
Classes by IC50: lo (below 0.9 nM), med (0.9 nM to below 6 nM), hi (6 nM or more)

{"molecule": "Cc1nc2cccc(-c3cc4c([nH]3)C3(CC3)CNC4=O)c2nc1NC1CC1", "subject of test": "Pim-1 (Homo sapiens (Human))", "label": "med"}
{"molecule": "Cc1nc2ccc(F)c(-c3cc4c([nH]3)CNC4=O)c2nc1NC(C)(C)C", "subject of test": "Pim-1 (Homo sapiens (Human))", "label": "lo"}
{"molecule": "Cc1nc2ccc(F)c(-c3cc4c([nH]3)CCNC4=O)c2nc1NC(C)(C)C", "subject of test": "Pim-1 (Homo sapiens (Human))", "label": "lo"}
{"molecule": "COCCn1c(NC(C)(C)C)nc2c(-c3cc4c([nH]3)[C@@H](C)NC4=O)cccc2c1=O", "subject of test": "Pim-1 (Homo sapiens (Human))", "label": "lo"}
{"molecule": "C[C@H]1NC(=O)c2cc(-c3cccc4c(=O)n(C)c(N[C@@H]5CCC[C@H](NC(=O)OC(C)(C)C)C5)nc34)[nH]c21 (racemic)", "subject of test": "Pim-1 (Homo sapiens (Human))", "label": "hi"}
{"molecule": "CCn1c(NC2(C)CC2)nc2c(-c3cc4c([nH]3)[C@@H](C)NC4=O)c(F)ccc2c1=O", "subject of test": "Pim-1 (Homo sapiens (Human))", "label": "lo"}
{"molecule": "Cc1nc2cccc(-c3cc4c([nH]3)CCNC4=O)c2nc1OCCC(C)(C)N", "subject of test": "Pim-1 (Homo sapiens (Human))", "label": "hi"}
{"molecule": "Cc1nc2cccc(-c3cc4c([nH]3)CCNC4=O)c2nc1NC1CN(C)C1", "subject of test": "Pim-1 (Homo sapiens (Human))", "label": "hi"}
{"molecule": "Cc1nc2cccc(-c3cc4c([nH]3)CCNC4=O)c2nc1N[C@@H](C)C(F)(F)F", "subject of test": "Pim-1 (Homo sapiens (Human))", "label": "hi"}
{"molecule": "CC(C)(C)Nc1nc2c(-c3cc4c([nH]3)CCNC4=O)cccc2nc1C#N", "subject of test": "Pim-1 (Homo sapiens (Human))", "label": "med"}
{"molecule": "Cc1nc2cccc(-c3cc4c([nH]3)CCNC4=O)c2nc1NC(C)(C)C(F)(F)F", "subject of test": "Pim-1 (Homo sapiens (Human))", "label": "med"}
{"molecule": "Cc1nc2cccc(-c3cc4c([nH]3)CCNC4=O)c2nc1NC(=O)C1CC1", "subject of test": "Pim-1 (Homo sapiens (Human))", "label": "hi"}
{"molecule": "CC(C)(C)Nc1cnc2cccc(-c3cc4n(c3)CCNC4=O)c2n1", "subject of test": "Pim-1 (Homo sapiens (Human))", "label": "med"}
{"molecule": "Cc1nc2cccc(-c3cc4c([nH]3)CCNC4=O)c2nc1N[C@H]1C[C@@H](N)C1 [Example 435, hydrochloride]", "subject of test": "Pim-1 (Homo sapiens (Human))", "label": "lo"}

---

- subject of test: Pim-2 (Homo sapiens (Human))
- method: Pim-Mn enzyme assay (HTRF, 384-well), Pim-2
- Type: biochemical
- setup conditions: Pim-2 enzyme 0.5 pM, ATP 1.5 μM, BAD (S112) 0.5 μM, HTRF, 22-point curve; read-out: Pim-2-Mn IC50 IP
pIC50: −log10 of the molar value.

{"smiles representation": "Cc1nc2cccc(-c3cc4c([nH]3)CNC4=O)c2nc1NCC(F)(F)F", "subject of test": "Pim-2 (Homo sapiens (Human))", "pIC50": 8.72}
{"smiles representation": "Cc1nc2cccc(-c3cc4c([nH]3)C[C@@H](C)NC4=O)c2nc1NC(C)(C)C", "subject of test": "Pim-2 (Homo sapiens (Human))", "pIC50": 8.47}
{"smiles representation": "CCN(c1cnc2cccc(-c3cc4c([nH]3)CCNC4=O)c2n1)C(C)(C)C", "subject of test": "Pim-2 (Homo sapiens (Human))", "pIC50": 10.00}
{"smiles representation": "Cc1nc2cccc(-c3cc4c([nH]3)[C@@H](C)NC4=O)c2nc1NCC(F)(F)F", "subject of test": "Pim-2 (Homo sapiens (Human))", "pIC50": 8.65}
{"smiles representation": "Cc1nc2cccc(-c3cc4c([nH]3)CNC4=O)c2nc1NC(C)(C)C", "subject of test": "Pim-2 (Homo sapiens (Human))", "pIC50": 9.05}
{"smiles representation": "Cc1nc2cccc(-c3cc4c([nH]3)C[C@H](C)NC4=O)c2nc1NC(C)(C)C", "subject of test": "Pim-2 (Homo sapiens (Human))", "pIC50": 8.40}
{"smiles representation": "CCn1c(NC2(C)CC2)nc2c(-c3cc4c([nH]3)[C@@H](C)NC4=O)c(F)ccc2c1=O", "subject of test": "Pim-2 (Homo sapiens (Human))", "pIC50": 10.42}
{"smiles representation": "CC(C)(C)Nc1nc2c(-c3cc4c([nH]3)CCNC4=O)cccc2nc1Cl", "subject of test": "Pim-2 (Homo sapiens (Human))", "pIC50": 8.65}

---

- subject of test: Pim-1 (Homo sapiens (Human))
- method: Pim-Mn enzyme assay (HTRF, 384-well), Pim-1
- Assay type: biochemical
- setup conditions: read-out: Pim-1-Mn IC50 IP
pIC50: −log10 of the molar value. Counter-ions that a name gives are not always drawn.

{"compound": "Cc1nc2cccc(-c3cc4c([nH]3)[C@@H](C)NC4=O)c2nc1NC(C)(C)CO", "pIC50": 8.74}
{"compound": "CC1(C)COCCN1c1cnc2cccc(-c3cc4c([nH]3)CCNC4=O)c2n1", "pIC50": 8.80}
{"compound": "Cc1nc2cccc(-c3cc4c([nH]3)CCNC4=O)c2nc1NS(C)(=O)=O [Example 240, 2,2,2-trifluoroacetate]", "pIC50": 7.06}
{"compound": "Cc1nc2cccc(-c3cc4c([nH]3)C(C)(C)NC4=O)c2nc1NC(C)(C)C", "pIC50": 8.64}
{"compound": "Cc1nc2ccc(F)c(-c3cc4c(=O)[nH]ccc4[nH]3)c2nc1NC(C)(C)C [Example 371, 2,2,2-trifluoroacetate salt]", "pIC50": 9.61}
{"compound": "Cc1nc2cccc(-c3cc4c([nH]3)CNC4=O)c2nc1NC1(C)CC1", "pIC50": 9.33}
{"compound": "CC(C)(C)Nc1nc2c(-c3cc4c([nH]3)CCNC4=O)cccc2nc1N1CCC1", "pIC50": 8.34}
{"compound": "Cc1nc2cccc(-c3cc4c([nH]3)CCNC4=O)c2nc1NC1CC(F)(F)C1", "pIC50": 8.06}

---

Listed here: items and their measured log10(IC50).
- subject of test: Pim-2 (Homo sapiens (Human), UniProt Q9P1W9)
- Sequence (Q9P1W9 whole entry): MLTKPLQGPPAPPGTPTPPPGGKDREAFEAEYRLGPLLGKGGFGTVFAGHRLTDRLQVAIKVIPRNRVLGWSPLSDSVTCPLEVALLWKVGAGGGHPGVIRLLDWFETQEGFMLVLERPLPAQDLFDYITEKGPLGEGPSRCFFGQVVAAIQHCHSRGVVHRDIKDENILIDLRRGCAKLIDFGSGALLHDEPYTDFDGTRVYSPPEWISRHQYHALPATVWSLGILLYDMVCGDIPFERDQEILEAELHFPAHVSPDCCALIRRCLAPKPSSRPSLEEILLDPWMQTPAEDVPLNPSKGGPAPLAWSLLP
- method: Pim enzyme assay (HTRF, 96-well), Pim-2
- Type: biochemical
- setup conditions: full length recombinant Pim-2, biotinylated-BAD (S112) peptide, 10-point curve, 45 min RT, read-out: Pim-2 IC50 IP
Structures can show the parent of a compound that is named as a salt.
metric name: log10(IC50) (log10 of the value in nM)

{"molecule": "O=c1[nH]cnc2[nH]c(-c3cccc4ccc(Cl)nc34)cc12 [Example 19, trifluoroacetate]", "log10(IC50)": 2.96}
{"molecule": "N[C@@H]1CCC[C@H](Nc2ccc3cccc(-c4cc5c([nH]4)CCNC5=O)c3n2)C1 (single isomer, unassigned) [Example 121]", "log10(IC50)": 1.35}
{"molecule": "CN(c1ccccc1)c1cnc2cccc(-c3cc4c([nH]3)CCNC4=O)c2n1", "log10(IC50)": 0.64}
{"molecule": "Cc1nc2cccc(-c3cc4c([nH]3)CCNC4=O)c2nc1NC1CCOCC1", "log10(IC50)": 1.10}
{"molecule": "O=C1NCCc2[nH]c(-c3cccc4ccc(Nc5ccc(F)cc5F)nc34)cc21", "log10(IC50)": 1.10}
{"molecule": "CC1Cc2[nH]c(-c3cccc4ccc(Nc5ccccc5)nc34)cc2C(=O)N1 (racemic) [Example 237]", "log10(IC50)": 1.53}
{"molecule": "O=C1NCCc2[nH]c(-c3cccc4ccc(Oc5ccccc5F)nc34)cc21", "log10(IC50)": 1.01}
{"molecule": "Cc1cccc(C)c1Oc1ccc2cccc(-c3cc4c([nH]3)CCNC4=O)c2n1", "log10(IC50)": 1.91}
